Taken from ChEMBL document CHEMBL5518230.

# Assay Procedure: Half life in Sprague-Dawley rat at 2 mg/kg,iv administration measured for 0.25 to 24 hrs by LC-MS/MS analysis
# Assay type: ADME, organism-based
# Experimental Context: in vivo, time 0.25-24 hrs
Parameter Measured: half-life
Write the quantity with the unit trailing the number.

Data point: "CC(C)n1nnc2ccc(-c3ccnc(Nc4cc(C(=O)N5CCCN(C)CC5)ccn4)c3)cc21" ; half-life = 1.7 h

###

# Assay Procedure: Cmax in Sprague-Dawley rat at 2 mg/kg,iv administration measured for 0.25 to 24 hrs by LC-MS/MS analysis
# Format: ADME, organism-based
# Experimental Context: in vivo, time 0.25-24 hrs
Parameter Measured: Cmax (ng/mL)
Just the number in ng/mL, nothing appended.

Data point: "CC(C)n1nnc2ccc(-c3ccnc(Nc4cc(C(=O)N5CCCN(C)CC5)ccn4)c3)cc21" ; Cmax = 358

###

What pIC50 was measured for each of the following?
Scale: pIC50 equals -log10([C]), with [C] in mol/L.

Here "CC(C)n1nnc2ccc(-c3ccnc(Nc4cc(C(=O)N5CCCC5)ccn4)c3)cc21" was tested on Cyclin-dependent kinase 9 (Homo sapiens), and its pIC50 came to 8.89

Here "CC(C)n1nnc2ccc(-c3ccnc(Nc4cc(C(=O)N5CCCN(C)CC5)ccn4)c3)cc21" was tested on Cyclin-dependent kinase 9 (Homo sapiens), and its pIC50 came to 8.54

###

# Assay Procedure: Growth inhibition of human CCC-HIE-2 cells incubated for 48 hrs by CCK-8 assay
# Assay type: toxicity, cell-based
Parameter Measured: GI50 at 48 h
Write the quantity with the unit trailing the number.

Data point: "CC(C)n1nnc2ccc(-c3ccnc(Nc4cc(C(=O)N5CCCN(C)CC5)ccn4)c3)cc21" ; GI50 at 48 h = 9.51 µM

###

What inhibition was measured for each of the following?
# System Under Test: CDK9/cyclin T1 (Homo sapiens) (UniProt O60563+P50750)
# Assay Procedure: Inhibition of CDK9/Cyclin T1 (unknown origin) using PDKtide substrate at 500 nM incubated for 60 mins by ADP-Glo kinase assay relative to control
# Type: protein-complex assay

Here "CC(C)(C)n1nnc2ccc(-c3ccnc(Nc4ccc(C(=O)N5CCOCC5)cc4)c3)cc21" was tested on CDK9/cyclin T1 (Homo sapiens) (UniProt O60563+P50750), and its inhibition came to 73.5%

Here "CC(C)n1nnc2ccc(-c3ccnc(Nc4ccc(C(=O)N5CCOCC5)cc4C(F)(F)F)c3)cc21" was tested on CDK9/cyclin T1 (Homo sapiens) (UniProt O60563+P50750), and its inhibition came to 11.4%

Here "CC(C)(C)n1nnc2ccc(-c3ccnc(Nc4ccc(C(=O)N5CCOCC5)cc4C(F)(F)F)c3)cc21" was tested on CDK9/cyclin T1 (Homo sapiens) (UniProt O60563+P50750), and its inhibition came to 6.51%

Here "O=C(c1ccc(Nc2cc(-c3ccc4nnn(C5CCCC5)c4c3)ccn2)c(F)c1)N1CCOCC1" was tested on CDK9/cyclin T1 (Homo sapiens) (UniProt O60563+P50750), and its inhibition came to 12.9%

Here "CC(C)n1nnc2ccc(-c3ccnc(Nc4ccc(C(=O)N5CCOCC5)cc4)c3)cc21" was tested on CDK9/cyclin T1 (Homo sapiens) (UniProt O60563+P50750), and its inhibition came to 83%

Here "CC(C)n1nnc2ccc(-c3ccnc(Nc4ccc(C(=O)N5CCOCC5)cc4F)c3)cc21" was tested on CDK9/cyclin T1 (Homo sapiens) (UniProt O60563+P50750), and its inhibition came to 65.3%

Here "CC(C)(C)n1nnc2ccc(-c3ccnc(Nc4ccc(C(=O)N5CCOCC5)cc4F)c3)cc21" was tested on CDK9/cyclin T1 (Homo sapiens) (UniProt O60563+P50750), and its inhibition came to 50.3%

Here "O=C(c1ccc(Nc2cc(-c3ccc4nnn(C5CCCCC5)c4c3)ccn2)c(C(F)(F)F)c1)N1CCOCC1" was tested on CDK9/cyclin T1 (Homo sapiens) (UniProt O60563+P50750), and its inhibition came to 0.49%

Here "O=C(c1ccc(Nc2cc(-c3ccc4nnn(C5CCCCC5)c4c3)ccn2)c(F)c1)N1CCOCC1" was tested on CDK9/cyclin T1 (Homo sapiens) (UniProt O60563+P50750), and its inhibition came to 41.1%

Here "O=C(c1ccc(Nc2cc(-c3ccc4nnn(C5CCCC5)c4c3)ccn2)c(C(F)(F)F)c1)N1CCOCC1" was tested on CDK9/cyclin T1 (Homo sapiens) (UniProt O60563+P50750), and its inhibition came to 47.1%

Here "COc1cc(C(=O)N2CCOCC2)ccc1Nc1cc(-c2ccc3nnn(C4CCCCC4)c3c2)ccn1" was tested on CDK9/cyclin T1 (Homo sapiens) (UniProt O60563+P50750), and its inhibition came to 16.3%

Here "O=C(c1ccc(Nc2cc(-c3ccc4nnn(C5CCCC5)c4c3)ccn2)cc1)N1CCOCC1" was tested on CDK9/cyclin T1 (Homo sapiens) (UniProt O60563+P50750), and its inhibition came to 81.2%

Here "O=C(c1ccc(Nc2cc(-c3ccc4nnn(C5CCCCC5)c4c3)ccn2)cc1)N1CCOCC1" was tested on CDK9/cyclin T1 (Homo sapiens) (UniProt O60563+P50750), and its inhibition came to 76%

Here "CC(C)(C)n1nnc2ccc(-c3ccnc(Nc4ccc(C(=O)N5CCOCC5)cn4)c3)cc21" was tested on CDK9/cyclin T1 (Homo sapiens) (UniProt O60563+P50750), and its inhibition came to 98.9%

Here "CC(C)n1nnc2ccc(-c3ccnc(Nc4ccc(C(=O)N5CCOCC5)cn4)c3)cc21" was tested on CDK9/cyclin T1 (Homo sapiens) (UniProt O60563+P50750), and its inhibition came to 101%

Here "COc1cc(C(=O)N2CCOCC2)ccc1Nc1cc(-c2ccc3nnn(C(C)C)c3c2)ccn1" was tested on CDK9/cyclin T1 (Homo sapiens) (UniProt O60563+P50750), and its inhibition came to 41.7%

Here "O=C(c1ccc(Nc2cc(-c3ccc4nnn(C5CCCC5)c4c3)ccn2)nc1)N1CCOCC1" was tested on CDK9/cyclin T1 (Homo sapiens) (UniProt O60563+P50750), and its inhibition came to 99.7%

Here "O=C(c1ccc(Nc2cc(-c3ccc4nnn(C5CCCCC5)c4c3)ccn2)nc1)N1CCOCC1" was tested on CDK9/cyclin T1 (Homo sapiens) (UniProt O60563+P50750), and its inhibition came to 98%

Here "COc1cc(C(=O)N2CCOCC2)ccc1Nc1cc(-c2ccc3nnn(C4CCCC4)c3c2)ccn1" was tested on CDK9/cyclin T1 (Homo sapiens) (UniProt O60563+P50750), and its inhibition came to 23.5%

Here "COc1cc(C(=O)N2CCOCC2)ccc1Nc1cc(-c2ccc3nnn(C(C)(C)C)c3c2)ccn1" was tested on CDK9/cyclin T1 (Homo sapiens) (UniProt O60563+P50750), and its inhibition came to 28.1%

###

What IC50 was measured for each of the following?

Here "CC(C)N1CCN(C(=O)c2ccnc(Nc3cc(-c4ccc5nnn(C(C)C)c5c4)ccn3)c2)CC1" was tested on Cyclin-dependent kinase 12 (Homo sapiens, UniProt Q9NYV4), and its IC50 came to > 500 nM

Here "CC(C)n1nnc2ccc(-c3ccnc(Nc4cc(C(=O)N5CCCC5)ccn4)c3)cc21" was tested on Cyclin-dependent kinase 12 (Homo sapiens, UniProt Q9NYV4), and its IC50 came to > 500 nM

Here "CC(C)n1nnc2ccc(-c3ccnc(Nc4cc(C(=O)N5CCCN(C)CC5)ccn4)c3)cc21" was tested on Cyclin-dependent kinase 12 (Homo sapiens, UniProt Q9NYV4), and its IC50 came to > 500 nM

###

IC50, Cyclin-dependent kinase 8 (Homo sapiens, UniProt P49336), per-entry values.

Data point: "CC(C)n1nnc2ccc(-c3ccnc(Nc4cc(C(=O)N5CCCC5)ccn4)c3)cc21" ; IC50 = > 500 nM

Data point: "CC(C)n1nnc2ccc(-c3ccnc(Nc4cc(C(=O)N5CCCN(C)CC5)ccn4)c3)cc21" ; IC50 = > 500 nM

###

# Assay Procedure: Apparent volume of distribution in Sprague-Dawley rat at 2 mg/kg,iv administration measured for 0.25 to 24 hrs by LC-MS/MS analysis
# Format: ADME, organism-based
# Experimental Context: in vivo, time 0.25-24 hrs, read-out: Vz
Parameter Measured: Vd (L/kg)
Just the number in L/kg, nothing appended.

Data point: "CC(C)n1nnc2ccc(-c3ccnc(Nc4cc(C(=O)N5CCCN(C)CC5)ccn4)c3)cc21" ; Vd = 13.4

###

What IC50 was measured for each of the following?
# System Under Test: UniProtKB P50613
# Sequence (P50613 whole entry): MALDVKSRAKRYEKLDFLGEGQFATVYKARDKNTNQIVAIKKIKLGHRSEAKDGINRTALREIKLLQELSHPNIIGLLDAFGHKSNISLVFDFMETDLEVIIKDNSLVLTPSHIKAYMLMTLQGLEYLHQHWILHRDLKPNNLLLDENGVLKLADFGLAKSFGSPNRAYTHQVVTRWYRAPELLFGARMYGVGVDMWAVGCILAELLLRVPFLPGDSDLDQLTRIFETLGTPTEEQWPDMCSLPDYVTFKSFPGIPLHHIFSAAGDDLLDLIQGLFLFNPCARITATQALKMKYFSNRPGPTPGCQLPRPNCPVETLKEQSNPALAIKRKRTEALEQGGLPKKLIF

Data point: "CC(C)n1nnc2ccc(-c3ccnc(Nc4cc(C(=O)N5CCCN(C)CC5)ccn4)c3)cc21" ; IC50 = > 500 nM

Data point: "CC(C)n1nnc2ccc(-c3ccnc(Nc4cc(C(=O)N5CCCC5)ccn4)c3)cc21" ; IC50 = > 500 nM

###

# System Under Test: CDK9/cyclin T1 (Homo sapiens)
# Sequence (O60563 whole entry): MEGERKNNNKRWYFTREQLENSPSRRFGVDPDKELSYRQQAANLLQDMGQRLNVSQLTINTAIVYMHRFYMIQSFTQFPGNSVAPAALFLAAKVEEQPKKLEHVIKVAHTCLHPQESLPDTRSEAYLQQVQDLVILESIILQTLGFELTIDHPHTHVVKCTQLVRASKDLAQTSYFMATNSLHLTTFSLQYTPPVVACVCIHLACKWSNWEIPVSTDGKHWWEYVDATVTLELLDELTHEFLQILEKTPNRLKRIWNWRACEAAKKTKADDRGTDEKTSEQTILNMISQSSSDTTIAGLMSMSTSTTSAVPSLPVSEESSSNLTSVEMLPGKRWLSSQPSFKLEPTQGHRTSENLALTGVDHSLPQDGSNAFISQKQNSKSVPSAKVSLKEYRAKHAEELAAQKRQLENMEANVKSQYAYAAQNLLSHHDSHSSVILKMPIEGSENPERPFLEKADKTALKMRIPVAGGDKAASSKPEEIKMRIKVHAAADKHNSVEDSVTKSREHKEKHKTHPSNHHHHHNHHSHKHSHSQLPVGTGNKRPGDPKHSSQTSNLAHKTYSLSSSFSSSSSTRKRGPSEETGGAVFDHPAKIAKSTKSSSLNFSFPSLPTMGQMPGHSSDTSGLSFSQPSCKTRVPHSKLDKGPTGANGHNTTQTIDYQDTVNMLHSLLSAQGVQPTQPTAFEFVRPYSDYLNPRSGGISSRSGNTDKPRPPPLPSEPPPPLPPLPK
# Sequence (P50750 whole entry): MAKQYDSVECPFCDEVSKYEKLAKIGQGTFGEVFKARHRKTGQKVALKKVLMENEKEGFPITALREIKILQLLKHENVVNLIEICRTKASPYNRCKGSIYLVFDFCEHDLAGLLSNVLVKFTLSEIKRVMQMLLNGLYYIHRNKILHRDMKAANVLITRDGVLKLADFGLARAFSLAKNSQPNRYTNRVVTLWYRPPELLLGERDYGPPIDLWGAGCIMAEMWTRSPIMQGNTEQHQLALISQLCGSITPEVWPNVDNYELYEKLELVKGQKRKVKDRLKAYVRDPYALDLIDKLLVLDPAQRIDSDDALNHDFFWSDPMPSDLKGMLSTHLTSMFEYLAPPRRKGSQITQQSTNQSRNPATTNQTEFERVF
# Assay Procedure: Inhibition of CDK9/Cyclin T1 (unknown origin) using PDKtide substrate incubated for 60 mins by ADP-Glo kinase assay
# Format: protein-complex assay
Parameter Measured: IC50 (nM)
Just the number in nM, nothing appended.

Data point: "CC(C)n1nnc2ccc(-c3ccnc(Nc4cc(C(=O)N5CCCC5)ccn4)c3)cc21" ; IC50 = 1.32

Data point: "CCN1CCN(C(=O)c2ccnc(Nc3cc(-c4ccc5nnn(C(C)C)c5c4)ccn3)c2)CC1" ; IC50 = 3.92

Data point: "O=C(c1ccc(Nc2cc(-c3ccc4nnn(C5CCCC5)c4c3)ccn2)nc1)N1CCOCC1" ; IC50 = 9.92
